System: H-1299 cells
Assay: MTT cytotoxicity assay, H-1299
Assay type: cell-based, human
Settings: Homo sapiens, NCI-H1299; MTT, 48 h
Assign pIC50 to each entry below.
# pIC50 is unitless: minus log10 of the molar concentration; print number only

Lookup: Fill blank: measured pIC50 of the compound Cc1ccc(-n2c(-c3ccc(C(=O)N/N=C/c4ccc(O)cc4O)cc3)cc3c2cc(-c2ccc(C(=O)N/N=C/c4ccc(O)cc4O)cc2)n3-c2ccc(C)cc2)cc1 [Compound 4] is ____.
Found: 5.24

Lookup: And COc1cccc(/C=N/NC(=O)c2ccc(-c3cc4c(cc(-c5ccc(C(=O)N/N=C/c6cccc(OC)c6O)cc5)n4-c4ccc(C)cc4)n3-c3ccc(C)cc3)cc2)c1O [Compound 5] ?
Found: 4.99

Lookup: For Cc1ccc(-n2c(-c3ccc(C(=O)N/N=C/c4cc(F)ccc4O)cc3)cc3c2cc(-c2ccc(C(=O)N/N=C/c4cc(F)ccc4O)cc2)n3-c2ccc(C)cc2)cc1 [Compound 3] then?
Found: 4.97

----------
Test system: U-118 MG cells
Experiment: MTT cytotoxicity assay, U-118 MG
Type: cell-based, human
Settings: Homo sapiens, U-118-MG, 48 h, U-118 MG, 750 nM, repeats, read-out: Cell viability %
Would you mind telling me the reported viability at 0.75 µM of each entry?

Lookup: State its viability at 0.75 µM on U-118 MG cells: Cc1ccc(-n2c(-c3ccc(C(=O)N/N=C/c4ccccc4O)cc3)cc3c2cc(-c2ccc(C(=O)N/N=C/c4ccccc4O)cc2)n3-c2ccc(C)cc2)cc1 [Compound 6]
Found: 67.2%

Lookup: Entry to check: Cc1ccc(-n2c(-c3ccc(C(=O)N/N=C/c4ccc(O)cc4O)cc3)cc3c2cc(-c2ccc(C(=O)N/N=C/c4ccc(O)cc4O)cc2)n3-c2ccc(C)cc2)cc1 [Compound 4]
Found: 88.6%

Lookup: For Cc1ccc(-n2c(-c3ccc(C(=O)NN)cc3)cc3c2cc(-c2ccc(C(=O)NN)cc2)n3-c2ccc(C)cc2)cc1 [Compound 1] then?
Found: 75.3%

Lookup: Field entry: CCN(CC)c1ccc(/C=N/NC(=O)c2ccc(-c3cc4c(cc(-c5ccc(C(=O)N/N=C/c6ccc(N(CC)CC)cc6O)cc5)n4-c4ccc(C)cc4)n3-c3ccc(C)cc3)cc2)c(O)c1 [Compound 2]
Found: 70%

Lookup: Cool, now Cc1ccc(-n2c(-c3ccc(C(=O)N/N=C/c4cc(F)ccc4O)cc3)cc3c2cc(-c2ccc(C(=O)N/N=C/c4cc(F)ccc4O)cc2)n3-c2ccc(C)cc2)cc1 [Compound 3]
Found: 70.2%

----------
Assay: MTT cytotoxicity assay, HF-P4
Assay type: cell-based, human
Conditions: human, HF-P4 normal human dermal fibroblasts, HF-P4, 500 nM, repeats, read-out: Cell viability %
For each entry below, report its viability at 48 h, 0.5 µM value.
Numeric only. Scale: %

Lookup: What value of viability at 48 h, 0.5 µM has been recorded for this entry: COc1cccc(/C=N/NC(=O)c2ccc(-c3cc4c(cc(-c5ccc(C(=O)N/N=C/c6cccc(OC)c6O)cc5)n4-c4ccc(C)cc4)n3-c3ccc(C)cc3)cc2)c1O [Compound 5]
Found: 105

Lookup: Proceed to Cc1ccc(-n2c(-c3ccc(C(=O)N/N=C/c4cc(F)ccc4O)cc3)cc3c2cc(-c2ccc(C(=O)N/N=C/c4cc(F)ccc4O)cc2)n3-c2ccc(C)cc2)cc1 [Compound 3]
Found: 99.9

Lookup: And for Cc1ccc(-n2c(-c3ccc(C(=O)N/N=C/c4ccc(O)cc4O)cc3)cc3c2cc(-c2ccc(C(=O)N/N=C/c4ccc(O)cc4O)cc2)n3-c2ccc(C)cc2)cc1 [Compound 4] ?
Found: 94.9

Lookup: Lookup CCN(CC)c1ccc(/C=N/NC(=O)c2ccc(-c3cc4c(cc(-c5ccc(C(=O)N/N=C/c6ccc(N(CC)CC)cc6O)cc5)n4-c4ccc(C)cc4)n3-c3ccc(C)cc3)cc2)c(O)c1 [Compound 2]
Found: 120

Lookup: Now the same for Cc1ccc(-n2c(-c3ccc(C(=O)N/N=C/c4ccccc4O)cc3)cc3c2cc(-c2ccc(C(=O)N/N=C/c4ccccc4O)cc2)n3-c2ccc(C)cc2)cc1 [Compound 6]
Found: 103

Lookup: And the next one, Cc1ccc(-n2c(-c3ccc(C(=O)NN)cc3)cc3c2cc(-c2ccc(C(=O)NN)cc2)n3-c2ccc(C)cc2)cc1 [Compound 1] ?
Found: 106

----------
For each entry below, report its viability at 0.5 µM value.
System: BT-20 cells
Test: MTT cytotoxicity assay, BT-20
Assay type: cell-based, human
Details: Homo sapiens, BT-20, 48 h, BT-20, 500 nM, repeats, read-out: Cell viability %
Procedure: The effects of the tested compounds 1–6 on HF-P4, U-118 MG, H1299, BT-20, and Caov-3 cell lines were evaluated by the MTT assay during 48 h treatment (Table 2 and Tables S2–S31). In all tested compounds, we recognized a difference in cytotoxicity between healthy cells (HF-P4) and cancer cell lines (BT-20, Caov-3, and H-1299). […] In the case of ovarian cancer, the authors discovered oncogenic and poor prognosis roles of TET1 in epithelial ovarian carcinoma (EOC). […]
Numbers only; they are read as %.

Lookup: viability at 0.5 µM for Cc1ccc(-n2c(-c3ccc(C(=O)NN)cc3)cc3c2cc(-c2ccc(C(=O)NN)cc2)n3-c2ccc(C)cc2)cc1 ?
Found: 87.8

Lookup: Now try Cc1ccc(-n2c(-c3ccc(C(=O)N/N=C/c4cc(F)ccc4O)cc3)cc3c2cc(-c2ccc(C(=O)N/N=C/c4cc(F)ccc4O)cc2)n3-c2ccc(C)cc2)cc1 .
Found: 95.3

Lookup: Same read-out for Cc1ccc(-n2c(-c3ccc(C(=O)N/N=C/c4ccccc4O)cc3)cc3c2cc(-c2ccc(C(=O)N/N=C/c4ccccc4O)cc2)n3-c2ccc(C)cc2)cc1 ?
Found: 79.9

----------
System: U-118 MG cells
Assay: MTT cytotoxicity assay, U-118 MG
Format: cell-based, human
Conditions: Homo sapiens, U-118-MG, 48 h, U-118 MG, 20 uM, repeats, read-out: Cell viability %
Assay Metric: viability at 20 µM (%)
Expressed in %, but write only the number.

Lookup: What viability at 20 µM value was documented for this compound, Cc1ccc(-n2c(-c3ccc(C(=O)N/N=C/c4ccc(O)cc4O)cc3)cc3c2cc(-c2ccc(C(=O)N/N=C/c4ccc(O)cc4O)cc2)n3-c2ccc(C)cc2)cc1 ?
Found: 15.2

Lookup: Again, but for Cc1ccc(-n2c(-c3ccc(C(=O)NN)cc3)cc3c2cc(-c2ccc(C(=O)NN)cc2)n3-c2ccc(C)cc2)cc1
Found: 32.4

Lookup: Another compound: COc1cccc(/C=N/NC(=O)c2ccc(-c3cc4c(cc(-c5ccc(C(=O)N/N=C/c6cccc(OC)c6O)cc5)n4-c4ccc(C)cc4)n3-c3ccc(C)cc3)cc2)c1O
Found: 21

----------
Tested on: BT-20 cells
Assay: MTT cytotoxicity assay, BT-20
Assay type: cell-based, human
Settings: Homo sapiens, BT-20, 48 h, BT-20, 750 nM, repeats, read-out: Cell viability %
Assay Metric: viability at 0.75 µM (%)
Give just the number in %; leave the unit off.

Lookup: Recorded viability at 0.75 µM for CCN(CC)c1ccc(/C=N/NC(=O)c2ccc(-c3cc4c(cc(-c5ccc(C(=O)N/N=C/c6ccc(N(CC)CC)cc6O)cc5)n4-c4ccc(C)cc4)n3-c3ccc(C)cc3)cc2)c(O)c1 , please?
Found: 88.9

Lookup: Try the molecule Cc1ccc(-n2c(-c3ccc(C(=O)NN)cc3)cc3c2cc(-c2ccc(C(=O)NN)cc2)n3-c2ccc(C)cc2)cc1
Found: 91.2

Lookup: Okay, and Cc1ccc(-n2c(-c3ccc(C(=O)N/N=C/c4ccccc4O)cc3)cc3c2cc(-c2ccc(C(=O)N/N=C/c4ccccc4O)cc2)n3-c2ccc(C)cc2)cc1 ?
Found: 85.1

Lookup: Now the same for Cc1ccc(-n2c(-c3ccc(C(=O)N/N=C/c4cc(F)ccc4O)cc3)cc3c2cc(-c2ccc(C(=O)N/N=C/c4cc(F)ccc4O)cc2)n3-c2ccc(C)cc2)cc1
Found: 99.7

----------
System: BT-20 cells
Test: MTT cytotoxicity assay, BT-20
Assay type: cell-based, human
Settings: Homo sapiens, BT-20; MTT, 48 h
Could you please report measured IC50 for the items listed next?
Form entry: value (µM) — number only.

Lookup: Report IC50 for CCN(CC)c1ccc(/C=N/NC(=O)c2ccc(-c3cc4c(cc(-c5ccc(C(=O)N/N=C/c6ccc(N(CC)CC)cc6O)cc5)n4-c4ccc(C)cc4)n3-c3ccc(C)cc3)cc2)c(O)c1 please.
Found: 11.9

Lookup: Now give it for Cc1ccc(-n2c(-c3ccc(C(=O)N/N=C/c4ccccc4O)cc3)cc3c2cc(-c2ccc(C(=O)N/N=C/c4ccccc4O)cc2)n3-c2ccc(C)cc2)cc1 too.
Found: 9.84

Lookup: Try this molecule next: Cc1ccc(-n2c(-c3ccc(C(=O)NN)cc3)cc3c2cc(-c2ccc(C(=O)NN)cc2)n3-c2ccc(C)cc2)cc1
Found: 5.94

Lookup: Continue with COc1cccc(/C=N/NC(=O)c2ccc(-c3cc4c(cc(-c5ccc(C(=O)N/N=C/c6cccc(OC)c6O)cc5)n4-c4ccc(C)cc4)n3-c3ccc(C)cc3)cc2)c1O
Found: 11.2

Lookup: Also need Cc1ccc(-n2c(-c3ccc(C(=O)N/N=C/c4ccc(O)cc4O)cc3)cc3c2cc(-c2ccc(C(=O)N/N=C/c4ccc(O)cc4O)cc2)n3-c2ccc(C)cc2)cc1 , thanks.
Found: 6.22

Lookup: Also Cc1ccc(-n2c(-c3ccc(C(=O)N/N=C/c4cc(F)ccc4O)cc3)cc3c2cc(-c2ccc(C(=O)N/N=C/c4cc(F)ccc4O)cc2)n3-c2ccc(C)cc2)cc1 ?
Found: 13.7
